- Tested on: Histidine-rich protein PFHRP-II (Plasmodium falciparum)
- Experiment summary: In vitro inhibition of beta-hematin formation in Plasmodium falciparum at 100 uM
- Type: functional
I'd appreciate it if you could supply inhibition values for the items below.
Numbers only, in %.

Provide reported inhibition for each item, in the same order as listed.
1. CC(C)(C)N/N=C/C(=O)NCCCCCCCNc1ccnc2cc(Cl)ccc12
2. O=C(/C=N/Nc1ccnc2cc(Cl)ccc12)NCCCCCCCNc1ccnc2cc(Cl)ccc12
3. O=C(/C=N/OCc1ccc([N+](=O)[O-])cc1)NCCCCCCCNc1ccnc2cc(Cl)ccc12
4. O=C(/C=N/Nc1ccc(Cl)cc1Cl)NCCCCCCCNc1ccnc2cc(Cl)ccc12

Outgoing:
[0, 0, 0, 12]

Provide reported inhibition for each item, in the same order as listed.
1. Cc1cc(N/N=C/C(=O)NCCCCCCCNc2ccnc3cc(Cl)ccc23)nc(C)n1
2. CC(C)(C)O/N=C/C(=O)NCCCCCCCNc1ccnc2cc(Cl)ccc12

Outgoing:
19
0

Provide reported inhibition for each item, in the same order as listed.
1. O=C(/C=N/Nc1c(Cl)cc(C(F)(F)F)cc1Cl)NCCCCCCCNc1ccnc2cc(Cl)ccc12
2. CCN(CC)CCCC(C)Nc1ccnc2cc(Cl)ccc12 (stereo not given)
3. O=C(/C=N/O)NCCCCCCCNc1ccnc2cc(Cl)ccc12
4. O=C(/C=N/NCc1ccccc1)NCCCCCCCNc1ccnc2cc(Cl)ccc12
5. Cc1ccc(N/N=C/C(=O)NCCCCCCCNc2ccnc3cc(Cl)ccc23)c(C)c1
6. O=C(/C=N/Nc1cnc2ccccc2n1)NCCCCCCCNc1ccnc2cc(Cl)ccc12
7. O=C(/C=N/OCc1ccccc1)NCCCCCCCNc1ccnc2cc(Cl)ccc12

Outgoing:
7
55
6
0
8
0
0

====

- System: Plasmodium falciparum
- Experiment summary: Growth inhibitory concentration against chloroquine-resistant Plasmodium falciparum
- Type: functional, organism-based
Result type: pIC50
Numbers only, as −log10 of the molar value.

Structure smiles: O=C(/C=N/Nc1ccnc2cc(Cl)ccc12)NCCCCCCCNc1ccnc2cc(Cl)ccc12
Test result: 7.71

Provide reported pIC50 for each item, in the same order as listed.
1. O=C(/C=N/Nc1ccc([N+](=O)[O-])cc1[N+](=O)[O-])NCCCCCCCNc1ccnc2cc(Cl)ccc12
2. O=C(/C=N/OCc1ccc([N+](=O)[O-])cc1)NCCCCCCCNc1ccnc2cc(Cl)ccc12
3. O=C(/C=N/Nc1c(Cl)cc(C(F)(F)F)cc1Cl)NCCCCCCCNc1ccnc2cc(Cl)ccc12
4. O=C(/C=N/NCc1ccccc1)NCCCCCCCNc1ccnc2cc(Cl)ccc12
5. COc1ccc2nc(N/N=C/C(=O)NCCCCCCCNc3ccnc4cc(Cl)ccc34)nnc2c1
6. Cc1cc(N/N=C/C(=O)NCCCCCCCNc2ccnc3cc(Cl)ccc23)nc2c1c(C)nn2C

Outgoing:
1. 7.33
2. 7.21
3. 7.05
4. 6.79
5. 7.13
6. 7.19

====

- Tested on: Histidine-rich protein PFHRP-II (Plasmodium falciparum) (UniProt P05227)
- Sequence (P05227 whole entry): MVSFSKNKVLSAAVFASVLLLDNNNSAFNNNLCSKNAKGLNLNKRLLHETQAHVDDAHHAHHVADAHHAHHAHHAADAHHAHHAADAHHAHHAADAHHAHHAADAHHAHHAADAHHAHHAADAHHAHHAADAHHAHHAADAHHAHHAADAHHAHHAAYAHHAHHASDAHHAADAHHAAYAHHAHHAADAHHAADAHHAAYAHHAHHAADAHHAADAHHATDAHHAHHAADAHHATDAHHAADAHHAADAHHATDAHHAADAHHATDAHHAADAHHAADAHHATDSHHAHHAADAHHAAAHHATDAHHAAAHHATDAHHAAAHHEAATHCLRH
- Experiment summary: In vitro inhibition of beta-hematin formation in Plasmodium falciparum at 100 uM
- Assay type: functional
Result type: inhibition (%)
Answers are plain numbers, in %.

Structure smiles: O=C(/C=N/Nc1nc(-c2cccs2)ns1)NCCCCCCCNc1ccnc2cc(Cl)ccc12
Result type: inhibition
Result unit: %
Test result: 19
//
Structure smiles: CCO/N=C/C(=O)NCCCCCCCNc1ccnc2cc(Cl)ccc12
Result type: inhibition
Result unit: %
Test result: 0

Provide reported inhibition for each item, in the same order as listed.
1. CCOCC(=O)N/N=C/C(=O)NCCCCCCCNc1ccnc2cc(Cl)ccc12
2. CC(C)(C)c1ccc(N/N=C/C(=O)NCCCCCCCNc2ccnc3cc(Cl)ccc23)cc1
3. O=C(/C=N/Nc1ccc(F)c(Cl)c1)NCCCCCCCNc1ccnc2cc(Cl)ccc12
4. O=C(/C=N/Nc1ccc(F)cc1F)NCCCCCCCNc1ccnc2cc(Cl)ccc12
5. C=CCO/N=C/C(=O)NCCCCCCCNc1ccnc2cc(Cl)ccc12
6. O=C(/C=N/OCc1c(F)c(F)c(F)c(F)c1F)NCCCCCCCNc1ccnc2cc(Cl)ccc12
7. COC(=O)c1sccc1N/N=C/C(=O)NCCCCCCCNc1ccnc2cc(Cl)ccc12

Outgoing:
12
1
0
0
3
0
11
